TEST: Solid stability at T = 60° C. in atmosphere with 60% relative humidity (HPLC)
Type: physicochemical
EXPERIMENTAL_CONDITIONS: t = 144 h
MEASUREMENT_LABEL: (R)-feso-deacyl (%)

1. CC(C)C(=O)Oc1ccc(CO)cc1[C@H](CCN(C(C)C)C(C)C)c1ccccc1.O=C(O)/C=C/C(=O)O [fesoterodine fumarate] : 0.05

---

TEST: Solid stability at T = 60° C. in atmosphere with 60% relative humidity (HPLC)
Format: physicochemical
EXPERIMENTAL_CONDITIONS: t = 24 h
MEASUREMENT_LABEL: (R)-feso-deacyl (%)

1. CC(C)C(=O)Oc1ccc(CO)cc1[C@H](CCN(C(C)C)C(C)C)c1ccccc1.O=C(O)/C=C/C(=O)O [fesoterodine fumarate] : 0.02

---

TEST: Solution stability in methylethylketone at T = 40° C. (HPLC)
Assay type: physicochemical
EXPERIMENTAL_CONDITIONS: t = 3 hours
MEASUREMENT_LABEL: (R)-feso-deacyl (%)

1. CC(C)C(=O)Oc1ccc(CO)cc1[C@H](CCN(C(C)C)C(C)C)c1ccccc1.O=C(O)/C=C/C(=O)O [fesoterodine fumarate] : 0.01

---

TEST: Solid stability at T = 60° C. in atmosphere with 60% relative humidity (HPLC)
Assay type: physicochemical
EXPERIMENTAL_CONDITIONS: t = 144 h
MEASUREMENT_LABEL: RRt = 1.86 (%)

1. CC(C)C(=O)Oc1ccc(CO)cc1[C@H](CCN(C(C)C)C(C)C)c1ccccc1.O=C(O)/C=C/C(=O)O [fesoterodine fumarate] : 0.03

---

TEST: Solid stability at T = 60° C. in atmosphere with 60% relative humidity (HPLC)
Assay type: physicochemical
EXPERIMENTAL_CONDITIONS: t = 0
MEASUREMENT_LABEL: (R)-feso-deacyl (%)

1. CC(C)C(=O)Oc1ccc(CO)cc1[C@H](CCN(C(C)C)C(C)C)c1ccccc1.O=C(O)/C=C/C(=O)O [fesoterodine fumarate] : 0.02
